measured-target: rat CYP2D1, Cyp2d1 (gene 266684) (UniProt P10633)
Sequence (P10633 whole entry, looked up): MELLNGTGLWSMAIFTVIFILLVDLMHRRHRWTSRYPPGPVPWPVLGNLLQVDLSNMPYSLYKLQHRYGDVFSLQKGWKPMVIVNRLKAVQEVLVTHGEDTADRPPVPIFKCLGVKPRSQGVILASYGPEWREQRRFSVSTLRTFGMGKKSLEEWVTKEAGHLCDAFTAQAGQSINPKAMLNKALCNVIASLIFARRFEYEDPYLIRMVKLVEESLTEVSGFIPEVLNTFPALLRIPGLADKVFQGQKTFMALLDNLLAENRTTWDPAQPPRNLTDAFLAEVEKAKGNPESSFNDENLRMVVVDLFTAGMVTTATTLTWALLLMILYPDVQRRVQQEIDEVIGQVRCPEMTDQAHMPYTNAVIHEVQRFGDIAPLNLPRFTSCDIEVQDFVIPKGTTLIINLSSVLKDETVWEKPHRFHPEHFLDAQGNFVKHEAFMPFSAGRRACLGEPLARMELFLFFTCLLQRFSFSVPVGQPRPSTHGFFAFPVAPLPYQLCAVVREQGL
experiment-notes: NVS_ADME_rCYP2D1: NovaScreen (NVS) CYP450-related Enzyme Activity (ADME) Assay for rat CYP2D1 (AID 2283122)
Records with an inconclusive call do not appear. The source made the active and inactive calls. The calls were made as follows: active = hit-call score of the fitted dose curve at least 0.9, where 1 is the maximum; inconclusive = response in the unintended direction; inactive = score below 0.9.
Your response should consist of one outcome taken from Y (active), N (inactive)

Inquiry: Short answer needed: outcome of this test for Cc1nn(C)c(Oc2ccccc2)c1C=NOCc1ccc(C(=O)OC(C)(C)C)cc1 ?
Reply text: N

Inquiry: Short answer needed: outcome of this test for CCCCOCCOCCOCc1cc2c(cc1CCC)OCO2 ?
Reply text: Y

Inquiry: Short answer needed: outcome of this test for N#CSCSc1nc2ccccc2s1 ?
Reply text: Y

Inquiry: Short answer needed: outcome of this test for C#CCOC(=O)[C@@H](C)Oc1ccc(Oc2ncc(Cl)cc2F)cc1 ?
Reply text: Y

Inquiry: Short answer needed: outcome of this test for Oc1ccc(C(c2ccc(O)cc2)C(Cl)(Cl)Cl)cc1 ?
Reply text: Y

Inquiry: Short answer needed: outcome of this test for CC(C)(c1ccc(O)cc1)c1ccc(O)cc1 ?
Reply text: Y

---

experiment-notes: ATG_Sox_CIS: Attagene CIS-FACTORIAL HepG2 Assay for human SRY-box transcription factor (SOX) (AID 2282960)
cond: HepG2 Attagene cis-factorial SOX reporter, mRNA; actives raise or lower the signal
Activity calls are given as the source filed them. The calls were made as follows: active = hit-call score of the fitted dose curve at least 0.9, where 1 is the maximum; inactive = score below 0.9.
Your response should consist of one outcome taken from 1.0 (active), 0.0 (inactive)

Inquiry: Short answer needed: outcome of this test for Nc1ccccc1C(=O)OCCc1ccccc1 ?
Reply text: 0.0

Inquiry: Short answer needed: outcome of this test for CCCCNP(N)(N)=S ?
Reply text: 0.0

Inquiry: Short answer needed: outcome of this test for CCc1cc(C)cc(CC)c1-c1c(OC(=O)C(C)(C)C)n2n(c1=O)CCOCC2 ?
Reply text: 0.0

Inquiry: Short answer needed: outcome of this test for CCc1cccc(C)c1N(C(=O)CCl)[C@@H](C)COC ?
Reply text: 0.0

Inquiry: Short answer needed: outcome of this test for CCCCOC(=O)CCC(=O)OCCCC ?
Reply text: 0.0

Inquiry: Short answer needed: outcome of this test for O=[N+]([O-])c1cc(C(F)(F)F)c(Cl)c([N+](=O)[O-])c1Cl ?
Reply text: 1.0

Inquiry: Short answer needed: outcome of this test for C=COCCCl ?
Reply text: 0.0

Inquiry: Short answer needed: outcome of this test for CC(C)c1ccc(O)cc1 ?
Reply text: 0.0

Inquiry: Short answer needed: outcome of this test for CCOC(=O)N(C)N=O ?
Reply text: 0.0

Inquiry: Short answer needed: outcome of this test for CC(C)[C@@H](C(=O)O[C@@H](C#N)c1cccc(Oc2ccccc2)c1)c1ccc(Cl)cc1 ?
Reply text: 0.0

Inquiry: Short answer needed: outcome of this test for Nc1ccc(-c2ccc(N)c(N)c2)cc1N ?
Reply text: 0.0

Inquiry: Short answer needed: outcome of this test for O=C(O)COc1ccccc1 ?
Reply text: 0.0

Inquiry: Short answer needed: outcome of this test for CC(C)C#N ?
Reply text: 0.0

Inquiry: Short answer needed: outcome of this test for O=[N+]([O-])C=Cc1ccccc1 ?
Reply text: 1.0

---

experiment-notes: CCTE_Shafer_MEA_acute_cross_correlation_HWHM: CCTE's Neural Acute Assay for Cross Correlation at Half Width at Half Maximum, Shafer Lab (AID 2284026);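 also: percent change per well from pre-dose baseline in spike cross-correlogram half width; hits are a decrease in cross-correlogram half width relative to DMSO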;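 as to outcome: spontaneous network firing of rat primary cortical neurons on multiwell microelectrode arrays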
Active and inactive are the calls of the source. How the source made its calls: active means hit-call score of the fitted dose curve at least 0.9, where 1 is the maximum; inactive means score below 0.9.
Your response should consist of one outcome taken from active, inactive

Inquiry: Short answer needed: outcome of this test for O=[N+]([O-])O ?
Reply text: inactive

Inquiry: Short answer needed: outcome of this test for c1cc[n+]2c(c1)-c1cccc[n+]1CC2 ?
Reply text: inactive

Inquiry: Short answer needed: outcome of this test for CCCC[N+](CCCC)(CCCC)CCCC ?
Reply text: active

Inquiry: Short answer needed: outcome of this test for CC1(C)[C@H](C=C(Cl)Cl)[C@@H]1C(=O)O[C@@H](C#N)c1cccc(Oc2ccccc2)c1 ?
Reply text: active

Inquiry: Short answer needed: outcome of this test for C#CCN(C)[C@H](C)Cc1ccccc1 ?
Reply text: inactive

Inquiry: Short answer needed: outcome of this test for O=c1c2ccccc2c(=O)c2c1cc(Cl)c1[nH]c3c([nH]c12)c(Cl)cc1c(=O)c2ccccc2c(=O)c13 ?
Reply text: inactive

Inquiry: Short answer needed: outcome of this test for O=C(O)CNCP(=O)(O)O ?
Reply text: inactive
